Biological target: NAC peptide (Homo sapiens, UniProt P37840)
Construct: a 35 amino acid peptide corresponding to residues 61 to 95 of the α-synuclein protein; made in house; host or cells: chemical solid-phase peptide synthesis (Fmoc), not expressed
Assay: Circular dichroism (CD) analysis of NAC peptide conformation after incubation with test compounds (fibrillogenesis assay)
Assay type: biochemical
Conditions: active if it prevents the transition to β-turn/β-sheet in 50% or more of the trials
Method: 2 mM Solutions were prepared in TBSA buffer (Tris 0.02 M, NaCl 0.15 M, NaN3 0.005%, pH 7.4) and stored at 4° C. […] Fibrillogenesis assays were employed to identify test compounds that inhibit NAC's ability to assemble into fibers. Following removal of HFIP by evaporation under N2 gas, 20 μM NAC peptide is incubated in the assay buffer (0.02M Tris, 0.15 M NaCl, 0.005% NaN3, 100 uM EDTA) at 37° C. in a Perkin-Elmer HTS 7000 plus microplate reader with shaking for 1 minute every twenty minutes. […]
metric: Activity (CD)

// known answers, use as guide
1) CC(C)(C)NCCCS(C)(=O)=O
Yes
2) O=S(=O)(O)CCCC[N+]12CCC(CC1)CC2
Yes
3) O=S(=O)(O)CCCNC12C[C@H]3C[C@@H](C1)C[C@@H](C2)C3
Yes
4) O=C[C@H](Cc1ccccc1)NCCCS(=O)(=O)O
No
5) CCCCCCCCCCCCCCCCS(C)(C)CCCS(=O)(=O)O
Coil
6) CC(CCNC12C[C@H]3C[C@@H](C1)C[C@@H](C2)C3)S(=O)(=O)O (some centres unmarked)
Yes
7) CC(C)CCNCC(O)CS(=O)(=O)O (centres unmarked)
Yes
8) O=S(=O)([O-])CC(O)C[N+]12CCC(CC1)CC2 (centres unmarked)
No

Problem: Recorded Activity (CD) for `O=C[C@@H](Cc1ccccc1)N(O)CCCS(=O)(=O)O` , please?
Solution: Yes

Problem: Recorded Activity (CD) for `CCCCCCCCCCCCS(C)(C)CCCS(C)(=O)=O` , please?
Solution: Yes

Problem: Recorded Activity (CD) for `NCCS(=O)(=O)O` , please?
Solution: No

Problem: Recorded Activity (CD) for `O=S(=O)(O)CCC[N+]12CCC(CC1)CC2` , please?
Solution: No

Problem: Recorded Activity (CD) for `O=C1NCCCC[C@@H]1NCCCS(=O)(=O)O` , please?
Solution: No

Problem: Recorded Activity (CD) for `CC[N+](CC)(CC)CCCS(=O)(=O)[O-]` , please?
Solution: Yes

Problem: Recorded Activity (CD) for `O=S(=O)(O)CCCNCCc1c[nH]c2ccccc12` , please?
Solution: No

Problem: Recorded Activity (CD) for `CC(=O)C1(c2ccccc2)CCN(CCCS(=O)(=O)O)CC1` , please?
Solution: No

Problem: Recorded Activity (CD) for `CCCCCCNCCCS(=O)(=O)O` , please?
Solution: No

###

target: NAC peptide (Homo sapiens, UniProt P37840); construct: a 35 amino acid peptide corresponding to residues 61 to 95 of the α-synuclein protein; made in house; host or cells: chemical solid-phase peptide synthesis (Fmoc), not expressed; test: Electron microscopy (EM) analysis of NAC fiber formation in the fibrillogenesis assay; format: biochemical
metric: Activity (EM)

1. O=S(=O)(O)CCC[N+]12CCC(CC1)CC2 [drawing 65]
Yes
2. O=S(=O)(O)CC(O)CNC1CCCCC1 (stereo not shown) [drawing 64]
No
3. NCCCCS(=O)(=O)O [drawing 63]
Yes
4. CC[N+](CC)(CC)CCCS(=O)(=O)[O-] [drawing 62]
Yes

###

biological target: NAC peptide (Homo sapiens); construct: a 35 amino acid peptide corresponding to residues 61 to 95 of the α-synuclein protein; made in house; host or cells: chemical solid-phase peptide synthesis (Fmoc), not expressed; assay: Circular dichroism (CD) analysis of NAC peptide conformation after incubation with test compounds (fibrillogenesis assay); type: biochemical; settings: number of CD trials in which transition to β-turn/β-sheet was prevented, over trials run
metric: Activity: active trials / trials

// known answers, use as guide
1) CC[N+](CC)(CC)CCCS(=O)(=O)[O-] [compound 16]
3/3
2) CC1CC(NCCCS(=O)(=O)O)CC(C)(C)C1 (stereo not shown) [compound 34]
½
3) O=C[C@H](Cc1ccccc1)NCCCS(=O)(=O)O [compound 36]
0/1
4) O=S(=O)(O)CCCNC12C[C@H]3C[C@@H](C1)C[C@@H](C2)C3 [compound 26]
½
5) NCCCOS(=O)(=O)O [compound 4]
0/2

Problem: Recorded Activity: active trials / trials for O=S(=O)(O)OCCCOS(=O)(=O)O [compound 2] , please?
Solution: 2/2

###

biological target: NAC peptide (Homo sapiens, UniProt P37840); construct: a 35 amino acid peptide corresponding to residues 61 to 95 of the α-synuclein protein; made in house; host or cells: chemical solid-phase peptide synthesis (Fmoc), not expressed; experiment: Circular dichroism (CD) analysis of NAC peptide conformation after incubation with test compounds (fibrillogenesis assay); format: biochemical; settings: 125 μL of 40 μM NAC peptide with 125 μL of 200 μM test compound, pH 7.4, 37° C.; conformations over repeated trials
metric: CD Result (NAC conformation observed)

// known answers, use as guide
1) CC(C)(C)C1CCC(NCCCS(=O)(=O)O)CC1 (stereo not shown)
β-turn
2) NCCCOS(=O)(=O)O
β-turn
3) CC[N+](CC)(CC)CCCS(=O)(=O)[O-]
Random Coil
4) CC(CCNC12C[C@H]3C[C@@H](C1)C[C@@H](C2)C3)S(=O)(=O)O (stereo partly shown)
Random Coil β-sheet
5) O=S(=O)(O)CCCCS(=O)(=O)O
Random Coil β-sheet
6) CC(CC[N+]12CCC(CC1)CC2)S(=O)(=O)O (stereo not shown)
β-turn
7) CCCCCCCCCCCCCCCCS(C)(C)CCCS(=O)(=O)O
Random Coil
8) CC1CC(NCCCS(=O)(=O)O)CC(C)(C)C1 (stereo not shown)
Random Coil β-sheet
9) O=S(=O)(O)CC(O)CNC1C2CC3CC(C2)CC1C3 (stereo not shown)
Random Coil
10) CCCCCCNCCCS(=O)(=O)O
β-turn

Query compound follows.
Problem: Recorded CD Result (NAC conformation observed) for O=S(=O)(O)CC(O)CNC12C[C@H]3C[C@@H](C1)C[C@@H](C2)C3 (stereo partly shown) , please?
Solution: Random Coil

###

molecular target: NAC peptide (Homo sapiens); construct: a 35 amino acid peptide corresponding to residues 61 to 95 of the α-synuclein protein; made in house; host or cells: chemical solid-phase peptide synthesis (Fmoc), not expressed; assay: Circular dichroism (CD) analysis of NAC peptide conformation after incubation with test compounds (fibrillogenesis assay); assay type: biochemical; conditions: number of CD trials in which transition to β-turn/β-sheet was prevented, over trials run
metric: Activity: active trials / trials

// known answers, use as guide
1) NCCCCS(=O)(=O)O [compound 7]
2/4
2) CC(C)CCNCC(O)CS(=O)(=O)O (stereo not shown)
½
3) CC(=O)C1(c2ccccc2)CCN(CCCS(=O)(=O)O)CC1
¼
4) CCCCCCCCCCCCCCCCS(C)(C)CCCS(=O)(=O)O
4/4
5) NCCCCS(=O)(=O)O [compound 6]
½
6) NCCS(=O)(=O)O
0/2

Problem: Recorded Activity: active trials / trials for `O=S(=O)(O)CCCC[N+]12CCC(CC1)CC2` , please?
Solution: 2/4

Problem: Recorded Activity: active trials / trials for `CCCCCCNCCCS(=O)(=O)O` , please?
Solution: 0/2

Problem: Recorded Activity: active trials / trials for `O=C[C@@H](Cc1ccccc1)N(O)CCCS(=O)(=O)O` , please?
Solution: ½

Problem: Recorded Activity: active trials / trials for `O=S(=O)(O)CCCCS(=O)(=O)O` , please?
Solution: ½

Problem: Recorded Activity: active trials / trials for `CC(C)(C)NCCCS(C)(=O)=O` , please?
Solution: ½

Problem: Recorded Activity: active trials / trials for O=S(=O)([O-])CC(O)C[N+]12CCC(CC1)CC2 (stereo not shown) , please?
Solution: ⅓

Problem: Recorded Activity: active trials / trials for O=S(=O)(O)CCCNC(Cc1ccccc1)c1ccccc1 (stereo not shown) , please?
Solution: ⅔

Problem: Recorded Activity: active trials / trials for O=S(=O)(O)CC(O)CNC1CCCCC1 (stereo not shown) , please?
Solution: ⅓

Problem: Recorded Activity: active trials / trials for `O=S(=O)(O)CCCN1CCc2c([nH]c3ccccc23)C1` , please?
Solution: 3/3

###

biological target: NAC peptide (Homo sapiens); construct: a 35 amino acid peptide corresponding to residues 61 to 95 of the α-synuclein protein; made in house; host or cells: chemical solid-phase peptide synthesis (Fmoc), not expressed; test: Circular dichroism (CD) analysis of NAC peptide conformation after incubation with test compounds (fibrillogenesis assay); format: biochemical; parameters: key: Random Coil: signifies that the NAC in the sample was observed to have been maintained in its original random coil conformation indicating that the compound coincubated with NAC is active; signifies that the compound was not able to prevent the shift from random coil to β-sheet; β-sheet/β-turn: signifies that the compound was not able to prevent the shift from random coil to β-sheet; Transition: signifies that the NAC was observed to be in the process of converting from random coil to β-sheet indicating that the compound was able to slow down the conformational change and indicates activity; settings: 125 μL of 40 μM NAC peptide with 125 μL of 200 μM test compound, pH 7.4, 37° C.; conformations over repeated trials
metric: CD Result (NAC conformation observed)

1. CCCCCCCCCCCCS(C)(C)CCCS(C)(=O)=O
Random Coil
2. O=S(=O)(O)CCCNC(Cc1ccccc1)c1ccccc1 (stereo not shown)
Transition β-turn
3. O=S(=O)(O)CCCNC12C[C@H]3C[C@@H](C1)C[C@@H](C2)C3
Transition β-turn
4. CCCCCCCCCCCCCCS(C)(C)CCCS(=O)(=O)O
Random Coil
